Values were extracted from patent US20230048678A1.

- System: C. parapsilosis ATCC 22019
- protocol: CLSI broth microdilution susceptibility (Table 1)
- Type: cell-based
- condition.details: total inhibition, 48 h, 35° C.
yes (1) if MICTI is below 0.8 µg/mL. no (0) if not; exact matches included in no (0).

Use the examples below as a reference point.
compound	label.value
[C-]#[N+]c1cccc2c(NCC)cccc12	no (0)
Nc1cccc2c(N)cccc12 [DAN, 1,5-diaminonaphthalene, reference compound]	no (0)
[C-]#[N+]c1cccc2c(N(C)C)cccc12	yes (1)
[C-]#[N+]c1cccc2c([N+]#[C-])cccc12	yes (1)
[C-]#[N+]c1cccc2c(NC)cccc12	yes (1)

Is MICTI of `[C-]#[N+]c1cccc2c(NCCC)cccc12` strictly below 0.8 µg/mL?
no (0)

Is MICTI of `[C-]#[N+]c1cccc2c(N)cccc12` strictly below 0.8 µg/mL?
yes (1)

Is MICTI of [C-]#[N+]c1ccc([N+]#[C-])cc1 [PDI, 1,4-phenylenediisocyanide, reference compound] strictly below 0.8 µg/mL?
no (0)

----------
- Tested on: C. krusei ATCC 6258
- protocol: CLSI broth microdilution susceptibility (Table 1)
- Format: cell-based
- condition.details: partial (50%) inhibition, 48 h, 35° C.
outcome.measure: MICPI (µg/mL)
Just the number in µg/mL, nothing appended.

// solved cases for MICPI follow
compound	outcome.measure	observed.value
[C-]#[N+]c1cccc2c(NC)cccc12	MICPI	0.15
[C-]#[N+]c1ccc([N+]#[C-])cc1 [PDI, 1,4-phenylenediisocyanide, reference compound]	MICPI	50
[C-]#[N+]c1cccc2c(NCCC)cccc12	MICPI	0.15

Name the reported MICPI value associated with the compound `[C-]#[N+]c1cccc2c(N(C)C)cccc12`
0.15

----------
Measured MICPI by item
- System: C. krusei ATCC 6258
- protocol: CLSI broth microdilution susceptibility (Table 1)
- Assay type: cell-based
- condition.details: partial (50%) inhibition, 48 h, 35° C.
Just the number in µg/mL, nothing appended.

// solved cases for MICPI follow
molecule	units	observed.value
Nc1cccc2c(N)cccc12 [DAN, 1,5-diaminonaphthalene, reference compound]	µg/mL	50
[C-]#[N+]c1cccc2c([N+]#[C-])cccc12	µg/mL	0.3
[C-]#[N+]c1cccc2c(N)cccc12	µg/mL	0.6

Could you now consider this next molecule?
Name the reported MICPI value associated with the molecule `[C-]#[N+]c1cccc2c(NCC)cccc12`
0.6
